Cited source: ChEMBL document CHEMBL4041530

test: Plasma concentration in Wistar rat at 0.3 mg/kg, sc after 2 hrs; assay type: ADME, organism-based
Metric Name: concentration at 2 h (nM)
Give just the number in nM; leave the unit off.

### Prompt Identify measured concentration at 2 h corresponding to c1ccc2sc(NC3=NCC4(CN5CCC4CC5)N3)nc2c1 (stereo unspecified)
### Response 12

====

assay: Ratio of drug uptake in Wistar rat brain to plasma at 1 mg/kg, sc after 2 hrs; type: ADME, organism-based; details: read-out: BPR
Metric Name: Kp at 2 h

### Prompt Identify measured Kp at 2 h corresponding to c1ccc2sc(NC3=NCC4(CN5CCC4CC5)N3)nc2c1 (stereo unspecified)
### Response 4.3
